System: MCF7
Test: Anticancer activity against human MCF7 cells assessed as inhibition of cell proliferation measured after 48 hrs by MTT assay
Format: functional, cell-based
Settings: MCF7, 48 h
READOUT_NAME: pIC50
Give bare numbers, as −log10 of the molar value.

Record excerpt, results attached:
COc1cc2cc(N)c(=O)oc2cc1OCCCCCCOc1no[n+]([O-])c1S(=O)(=O)c1ccccc1; 5.50
COc1cc2cc(N)c(=O)oc2cc1OCCCCCOc1no[n+]([O-])c1S(=O)(=O)c1ccccc1; 5.58
COc1cc2ccc(=O)oc2cc1OCCOc1no[n+]([O-])c1S(=O)(=O)c1ccccc1; 5.45
COc1cc2cc(NC(C)=O)c(=O)oc2cc1OCCOc1no[n+]([O-])c1S(=O)(=O)c1ccccc1; 5.16
COc1cc2cc(NC(C)=O)c(=O)oc2cc1OCCCOc1no[n+]([O-])c1S(=O)(=O)c1ccccc1; 5.62

For each of the molecules below, note its pIC50.
1. COc1cc2ccc(=O)oc2cc1OCCCCCCOc1no[n+]([O-])c1S(=O)(=O)c1ccccc1
2. COc1cc2ccc(=O)oc2cc1OCCCCOc1no[n+]([O-])c1S(=O)(=O)c1ccccc1
3. COc1cc2cc(NC(C)=O)c(=O)oc2cc1OCCCCCCOc1no[n+]([O-])c1S(=O)(=O)c1ccccc1

[5.35, 5.52, 4.95]

----------
Assay: Anticancer activity against human MDA-MB-231 cells assessed as inhibition of cell proliferation measured after 48 hrs by MTT assay
Format: functional, cell-based
Settings: MDA-MB-23, 48 h
READOUT_NAME: IC50

Record excerpt, results attached:
COc1cc2cc(N)c(=O)oc2cc1OCCOc1no[n+]([O-])c1S(=O)(=O)c1ccccc1; 2.46 µM
COc1cc2cc(NC(C)=O)c(=O)oc2cc1OCCCCCOc1no[n+]([O-])c1S(=O)(=O)c1ccccc1; 4.34 µM
COc1cc2ccc(=O)oc2cc1OCCCCCCOc1no[n+]([O-])c1S(=O)(=O)c1ccccc1; 3.35 µM
COc1cc2cc(NC(C)=O)c(=O)oc2cc1OCCCOc1no[n+]([O-])c1S(=O)(=O)c1ccccc1; 3.81 µM
COc1cc2cc(N)c(=O)oc2cc1OCCCOc1no[n+]([O-])c1S(=O)(=O)c1ccccc1; 1.23 µM
COc1cc2ccc(=O)oc2cc1OCCCOc1no[n+]([O-])c1S(=O)(=O)c1ccccc1; 1.85 µM
COc1cc2cc(NC(C)=O)c(=O)oc2cc1OCCOc1no[n+]([O-])c1S(=O)(=O)c1ccccc1; 4.99 µM
O=S(=O)(c1ccccc1)c1c(OCCCO)no[n+]1[O-]; 7.25 µM

For each of the compounds below, note its IC50.
1. COc1cc2ccc(=O)oc2cc1OCCCCCOc1no[n+]([O-])c1S(=O)(=O)c1ccccc1
2. COc1cc2cc(N)c(=O)oc2cc1OCCCCCCOc1no[n+]([O-])c1S(=O)(=O)c1ccccc1
3. COc1cc2ccc(=O)oc2cc1O [SCOPOLETIN]

1: 3.17 µM; 2: 2.93 µM; 3: > 25 µM

----------
Test system: MCF7
Experiment: Anticancer activity against human MCF7 cells assessed as inhibition of cell proliferation measured after 48 hrs by MTT assay
Type: functional, cell-based
Conditions: MCF7, 48 h
Field: pIC50. Provide a value for each of the compounds that follow.
Give bare numbers, as −log10 of the molar value.

COc1cc2ccc(=O)oc2cc1OCCCCCOc1no[n+]([O-])c1S(=O)(=O)c1ccccc1; 5.41

For each of the compounds below, note its pIC50.
1. COc1cc2ccc(=O)oc2cc1OCCCOc1no[n+]([O-])c1S(=O)(=O)c1ccccc1
2. COc1cc2cc(N)c(=O)oc2cc1OCCCOc1no[n+]([O-])c1S(=O)(=O)c1ccccc1
3. COc1cccc2c1C(=O)c1c(O)c3c(c(O)c1C2=O)C[C@@](O)(C(=O)CO)C[C@@H]3O[C@H]1C[C@H](N)[C@H](O)[C@H](C)O1 [DOXORUBICIN]
4. COc1cc2cc(N)c(=O)oc2cc1OCCOc1no[n+]([O-])c1S(=O)(=O)c1ccccc1
5. COc1cc2cc(NC(C)=O)c(=O)oc2cc1OCCCCOc1no[n+]([O-])c1S(=O)(=O)c1ccccc1

[5.64, 5.72, 6.22, 5.56, 5.46]

For each of the compounds below, note its pIC50.
1. COc1cc2cc(NC(C)=O)c(=O)oc2cc1OCCCCCOc1no[n+]([O-])c1S(=O)(=O)c1ccccc1
2. COc1cc2cc(N)c(=O)oc2cc1OCCCCOc1no[n+]([O-])c1S(=O)(=O)c1ccccc1

[5.20, 5.64]

----------
System: MCF7
Experiment: Antiproliferative activity against human MCF7 cells assessed as inhibition of cell growth rate at 10 uM measured after 48 hrs by MTT assay
Format: functional
Is inhibition at 10 µM at least 80%? Then Fulfilled. If not, Not fulfilled.

Example results:
COc1cc2cc(NC(C)=O)c(=O)oc2cc1OCCCCCOc1no[n+]([O-])c1S(=O)(=O)c1ccccc1; Not fulfilled
COc1cc2ccc(=O)oc2cc1O; Not fulfilled
COc1cc2ccc(=O)oc2cc1OCCCCCOc1no[n+]([O-])c1S(=O)(=O)c1ccccc1; Fulfilled
COc1cc2cc(N)c(=O)oc2cc1OCCCOc1no[n+]([O-])c1S(=O)(=O)c1ccccc1; Fulfilled
COc1cc2cc(NC(C)=O)c(=O)oc2cc1OCCOc1no[n+]([O-])c1S(=O)(=O)c1ccccc1; Fulfilled

Could you verify whether the entry COc1cc2cc(NC(C)=O)c(=O)oc2cc1OCCCCCCOc1no[n+]([O-])c1S(=O)(=O)c1ccccc1 shows inhibition at 10 µM of no less than 80%? Not fulfilled

One more compound: COc1cc2cc(N)c(=O)oc2cc1OCCCCCCOc1no[n+]([O-])c1S(=O)(=O)c1ccccc1 Fulfilled

One more compound: COc1cc2ccc(=O)oc2cc1OCCOc1no[n+]([O-])c1S(=O)(=O)c1ccccc1 Fulfilled

One more compound: COc1cc2ccc(=O)oc2cc1OCCCCOc1no[n+]([O-])c1S(=O)(=O)c1ccccc1 Fulfilled

----------
Experiment: Anticancer activity against human MDA-MB-231 cells assessed as inhibition of cell proliferation measured after 48 hrs by MTT assay
Format: functional, cell-based
Settings: MDA-MB-23, 48 h
// classify: if (IC50 < 3 µM) class 1 else class 0

COc1cc2cc(NC(C)=O)c(=O)oc2cc1OCCCCOc1no[n+]([O-])c1S(=O)(=O)c1ccccc1; class 0
COc1cc2cc(NC(C)=O)c(=O)oc2cc1OCCCCCCOc1no[n+]([O-])c1S(=O)(=O)c1ccccc1; class 0
COc1cccc2c1C(=O)c1c(O)c3c(c(O)c1C2=O)C[C@@](O)(C(=O)CO)C[C@@H]3O[C@H]1C[C@H](N)[C@H](O)[C@H](C)O1; class 1
COc1cc2ccc(=O)oc2cc1OCCOc1no[n+]([O-])c1S(=O)(=O)c1ccccc1; class 1
COc1cc2ccc(=O)oc2cc1OCCCCOc1no[n+]([O-])c1S(=O)(=O)c1ccccc1; class 1

Problem: For the compound COc1cc2cc(N)c(=O)oc2cc1OCCCCCOc1no[n+]([O-])c1S(=O)(=O)c1ccccc1 , is IC50 under 3 µM? class 1

One more compound: COc1cc2cc(N)c(=O)oc2cc1O class 0

One more compound: COc1cc2cc(N)c(=O)oc2cc1OCCCCOc1no[n+]([O-])c1S(=O)(=O)c1ccccc1 class 1

----------
Tested on: MCF7
Experiment: Antiproliferative activity against human MCF7 cells assessed as inhibition of cell growth rate at 10 uM measured after 48 hrs by MTT assay
Type: functional
Field: inhibition at 10 µM. Provide a value for each of the compounds that follow.
Answers are plain numbers, in %.

Record excerpt, results attached:
COc1cc2cc(N)c(=O)oc2cc1OCCOc1no[n+]([O-])c1S(=O)(=O)c1ccccc1; 88.5
COc1cc2ccc(=O)oc2cc1OCCCOc1no[n+]([O-])c1S(=O)(=O)c1ccccc1; 88.6
COc1cc2cc(N)c(=O)oc2cc1O; 7.13

For each of the compounds below, note its inhibition at 10 µM.
1. COc1cc2cc(N)c(=O)oc2cc1OCCCCOc1no[n+]([O-])c1S(=O)(=O)c1ccccc1
2. COc1cc2cc(NC(C)=O)c(=O)oc2cc1OCCCCOc1no[n+]([O-])c1S(=O)(=O)c1ccccc1
3. COc1cc2cc(N)c(=O)oc2cc1OCCCCCOc1no[n+]([O-])c1S(=O)(=O)c1ccccc1

89
80.4
88.8

Sourced from ChEMBL document CHEMBL4765333
